TARGET DESC: CDK2 (Homo sapiens, UniProt P24941)
pKd: −log10 of the molar value.
MEASURED ATTRIBUTE: pKd

Fill in the blank: the reported pKd of CCc1cnn2c(NCc3ccc(OCCOCCOCCOC4CCN(c5ncc(C(=O)N[C@H]6C(C)(C)[C@H](Oc7ccc(C#N)c(Cl)c7)C6(C)C)cn5)CC4)nc3)cc(N3CCCC[C@H]3CCO)nc12 is ____. < 5.60

---

Test system: T47D cells
MEASUREMENT NOTES: Cellular growth inhibition assay for T47D cells
Format: cell-based
CONDITION CONTEXT: Homo sapiens, 72 hours, CellTiter-Glo 2.0
// GI50 lookup, one value per entry

molecule=Cc1ncc(-c2nc(Nc3ccc(C(=O)N4CC[C@H](N(C)CCOC5CCN(c6ncc(C(=O)N[C@H]7C(C)(C)[C@H](Oc8ccc(C#N)c(Cl)c8)C7(C)C)cn6)CC5)C4)cc3)ncc2F)n1C(C)C target_desc="T47D cells" test_result="500 to 1500 nM"

Fill in the blank: the reported GI50 of CCc1cnn2c(NCc3ccc(OCCCN4CCC(C5CN(c6ncc(C(=O)N[C@H]7C(C)(C)[C@H](Oc8ccc(C#N)c(Cl)c8)C7(C)C)cn6)C5)CC4)nc3)cc(N3CCCC[C@H]3CCO)nc12 is ____. < 500 nM

CCc1cnn2c(NCc3ccc(OCCN4CCN(CC5CCN(c6ncc(C(=O)N[C@H]7C(C)(C)[C@H](Oc8ccc(C#N)c(Cl)c8)C7(C)C)cn6)CC5)CC4)nc3)cc(N3CCCCC3)nc12 ? 1500 to 3000 nM

CCc1cnn2c(NCc3ccc(N4CC(OCCN5CC6CN(c7ncc(C(=O)N[C@H]8C(C)(C)[C@H](Oc9ccc(C#N)c(Cl)c9)C8(C)C)cn7)CC6C5)C4)nc3)cc(N3CCCC[C@H]3CCO)nc12 (stereo partly drawn) ? 1500 to 3000 nM

Hello, the source for this data is patent US20260159520A1, in case you need it.
